measurement_notes: refractive index (Na D-line) (dimensionless); xn = mol fraction of the nth substance listed
condition_label: 283.15 K; 100 kPa; Liquid; Standard Abbe refractometry; x1 = 0.25
value_type: refractive index
Give bare numbers.

Input line: Given CCCC[N+](CCCC)(CCCC)Cc1ccccc1.[Cl-] [benzyltributylammonium chloride] + OCCO , state its recorded refractive index.
Output line: 1.4993

Input line: And what about the compound CCCC[N+](CCCC)(CCCC)Cc1ccccc1.[Cl-] [benzyltributylammonium chloride] + OCCOCCOCCO ?
Output line: 1.4936

Input line: Next up: C[N+](C)(C)Cc1ccccc1.[Cl-] [trimethylbenzylammonium chloride] + OCC(O)CO
Output line: 1.5126

Hi there! I need refractive index for each item below, if you can.
1. C[N+](C)(C)Cc1ccccc1.[Cl-] [trimethylbenzylammonium chloride] + OCCOCCO
2. C[N+](C)(C)Cc1ccccc1.[Cl-] [trimethylbenzylammonium chloride] + OCCO
3. CCCC[N+](CCCC)(CCCC)Cc1ccccc1.[Cl-] [benzyltributylammonium chloride] + OCCOCCO
4. C[N+](C)(C)Cc1ccccc1.[Cl-] [trimethylbenzylammonium chloride] + OCCOCCOCCO

Output line:
1.4954
1.4995
1.4957
1.4923

Input line: Endpoint output: refractive index of CCCC[N+](CCCC)(CCCC)Cc1ccccc1.[Cl-] [benzyltributylammonium chloride] + OCC(O)CO . Value?
Output line: 1.5095

====

measurement_notes: xn = mol fraction of the nth substance listed
condition_label: 293.15 K; 100 kPa; Liquid; Vibrating tube method; x1 = 0.25
± gives the expanded uncertainty stated by the source.
value_type: mass density
Numeric answer plus unit only.

Here are 2 compounds together with their reported answers.
Input line: Quick check: mass density of C[N+](C)(C)Cc1ccccc1.[Cl-] [trimethylbenzylammonium chloride] + OCC(O)CO ?
Output line: 1184.97 ± 12 kg/m3

Input line: Also CCCC[N+](CCCC)(CCCC)Cc1ccccc1.[Cl-] [benzyltributylammonium chloride] + OCCOCCO ?
Output line: 1057.65 ± 11 kg/m3

Quick request: mass density for each listed item, please.
1. CCCC[N+](CCCC)(CCCC)Cc1ccccc1.[Cl-] [benzyltributylammonium chloride] + OCC(O)CO
2. C[N+](C)(C)Cc1ccccc1.[Cl-] [trimethylbenzylammonium chloride] + OCCOCCOCCO

Output line:
1: 1105.78 ± 11 kg/m3; 2: 1120.7 ± 11 kg/m3

====

measurement_notes: xn = mol fraction of the nth substance listed
condition_label: 343.15 K; 100 kPa; Liquid; Single path-length method; x1 = 0.25
Numbers after ± are expanded uncertainties.
value_type: speed of sound
Output should be the measured figure followed by the unit it is expressed in.

Input line: Any idea what speed of sound was measured for CCCC[N+](CCCC)(CCCC)Cc1ccccc1.[Cl-] [benzyltributylammonium chloride] + OCCOCCO ?
Output line: 1536.7 ± 3.3 m/s

Could you tell me speed of sound for each of these compounds? They are listed below.
1. CCCC[N+](CCCC)(CCCC)Cc1ccccc1.[Cl-] [benzyltributylammonium chloride] + OCCO
2. CCCC[N+](CCCC)(CCCC)Cc1ccccc1.[Cl-] [benzyltributylammonium chloride] + OCC(O)CO

Output line:
1. 1547.9 ± 3.3 m/s
2. 1653.9 ± 3.4 m/s

Input line: Requested field: speed of sound. Item: C[N+](C)(C)Cc1ccccc1.[Cl-] [trimethylbenzylammonium chloride] + OCCOCCO
Output line: 1633.1 ± 3.5 m/s
